Data origin, for the record: PubChem BioAssay (NCI)

- Tested on: TK-10 renal
- assay-details: NCI-60 one-dose screen, 48 h
- setup-conditions: 10 µM unless noted
The panel holds about 83,000 compounds, 20% with a hit somewhere; the sample as a whole holds those more often. Calls of active or inactive are those of the source. Rule for the calls: active = growth percent below 10; inactive = the rest.
Labels: y = active, n = inactive

- molecule: "CCc1n(Cc2ccc3ccccc3n2)cc[n+]1Cc1ccc2ccccc2n1"
  answer-label: "n"
- molecule: "COc1ccc(-c2nc(/C=C3\\C(=O)N(C)c4ccccc43)c3ccccn23)cc1"
  answer-label: "n"
- molecule: "O=C(Nc1ccccc1N1CCCC1=O)c1oc2ccc(F)cc2c1-c1cnn(-c2ccccc2)c1"
  answer-label: "n"
- molecule: "O=C(Nc1ccc(Cl)cc1)Oc1c(Cl)c(Cl)c(Cl)c(Cl)c1Cl"
  answer-label: "n"
- molecule: "O=C1/C(=C/c2ccccc2F)CN(C(=O)C(Cl)Cl)C/C1=C\\c1ccccc1F"
  answer-label: "y"
- molecule: "O=C1/C=C/[C@@H](O)[C@@H]2C[C@@H](O)C[C@H]2/C=C/CCC[C@H](CCO)O1"
  answer-label: "y"
- molecule: "O=C(Nc1cc(Cl)ccc1O)c1cccc(Nc2ccnc(C(F)(F)F)c2)c1"
  answer-label: "n"
- molecule: "Nc1[nH]c(=S)nc2oc(-c3ccccc3)c(-c3ccccc3)c12"
  answer-label: "n"
- molecule: "O=C(O)[C@@H](Cc1ccc2ccccc2c1)NC(=O)n1c2ccccc2c2ccccc21"
  answer-label: "n"
- molecule: "Cc1nn(-c2cc(NC3CCC(O)CC3)c3c(=O)[nH]c(CCC(F)(F)F)cc3c2)c2c1C(=O)CC(C)(C)C2 (stereo not given)"
  answer-label: "n"
